# measurementTarget: GABA-A receptor; anion channel
# testMethodNotes: Inhibition of [35S][…] (TBPS) binding to Gamma-aminobutyric acid receptor
propertyMeasured: IC50 (µM)

a. CCOC(=O)c1c(C)nc2c(c1N)c1ccccc1n2C
b. C#CCOC(=O)c1c(C)nc2sc3c(c2c1N)CCC1(C3)OCCO1
-- ask Compare IC50: is it lower for a or for b ? Identify your selection by its label.
-- reply b

1. CCOC(=O)c1c(C)nc2sc3c(c2c1N)CCC1(C3)OCCO1
2. Cc1nc2sc3c(c2c(N)c1C(=O)OCCC1CC1)CCC1(C3)OCCO1
-- ask Of the pair 1 and 2 , name the member with the lesser recorded IC50. Answer format: the label of the selected item.
-- reply 2
(2: 0.24 µM, 1: 16.4 µM)

Reference source for all entries: ChEMBL document CHEMBL1128054
